Where do the numbers come from? From ChEMBL document CHEMBL1150419.

# target.system: IgG receptor FcRn large subunit p51 (Homo sapiens)
# Sequence (P55899 whole entry): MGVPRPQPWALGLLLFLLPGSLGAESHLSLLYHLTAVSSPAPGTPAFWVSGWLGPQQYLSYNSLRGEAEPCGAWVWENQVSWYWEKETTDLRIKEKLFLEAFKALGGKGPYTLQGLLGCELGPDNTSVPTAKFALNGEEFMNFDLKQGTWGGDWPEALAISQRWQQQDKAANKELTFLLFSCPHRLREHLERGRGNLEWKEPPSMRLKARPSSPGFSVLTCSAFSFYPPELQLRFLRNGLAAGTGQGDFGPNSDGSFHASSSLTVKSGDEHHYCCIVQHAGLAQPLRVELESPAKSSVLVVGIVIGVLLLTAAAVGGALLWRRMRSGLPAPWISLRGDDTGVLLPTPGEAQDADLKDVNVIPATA
# test.details: Binding affinity to human FcRn at pH 6 by surface plasmon resonance assay
outcome.measure: pKd
# pKd = -log10(concentration in molar units)

compound	pKd
CC(C)C[C@H](NC(=O)CNC(=O)CNC(=O)[C@H](Cc1ccc2ccccc2c1)NC(=O)[C@H](Cc1cnc[nH]1)NC(=O)CNC(=O)[C@@H](NC(=O)[C@@H](NC(=O)[C@H](Cc1ccccc1)NC(=O)[C@H](CCCN=C(N)N)NC(=O)[C@@H](N)CCC(N)=O)C(C)(C)S)[C@@H](C)O)C(=O)N[C@@H](Cc1ccc(O)cc1)C(=O)N1CCC[C@H]1C(=O)N[C@@H](CS)C(=O)N[C@@H](CC(N)=O)C(=O)NCC(=O)N1CCC[C@H]1C(=O)O	4.96

Attention now turns to another entry.
Req: Could you share what pKd was measured for CC(C)C[C@@H](C(=O)N[C@@H](Cc1ccc(O)cc1)C(=O)N1CCC[C@H]1C(=O)N[C@@H](CS)C(=O)O)N(C)C(=O)CNC(=O)CNC(=O)[C@H](Cc1ccccc1)NC(=O)[C@H](Cc1cnc[nH]1)NC(=O)CNC(=O)[C@@H](NC(=O)[C@@H](NC(=O)[C@H](Cc1ccccc1)NC(=O)[C@@H](N)CCCN=C(N)N)C(C)(C)S)[C@@H](C)O , tested on IgG receptor FcRn large subunit p51 (Homo sapiens)?
Resp: 7.23
